System: WSU-DLCL cell line
assay: Hematological cell line viability/apoptosis flow cytometry assay
Type: cell-based
setup_conditions: WSU-DLCL (DLBCL GCB); 120 h
Experimental: Cell Proliferation and Viability Assay Using Hematological Cell Lines: The following exemplary anti-proliferative assay uses exemplary hematological cell lines in the following. The in vitro growth inhibitory activity of Compound 1 described herein was evaluated using a 384-well flow cytometry assay. The cell lines were plated in 384-well flat bottom plates and assessed with increasing concentrations of compound ranging from 0.00015 to 10 μM or dimethyl sulfoxide (DMSO) control. […]
measured_endpoint: EC50 (nM)
Numeric answer only, unit nM assumed.

Test item O=C1CC[C@H](N2C(=O)c3cccc(NCc4ccc(CN5CC(N6CCOCC6)C5)cc4F)c3C2=O)C(=O)N1 [Compound 1] ; WSU-DLCL cell line; reported EC50 was 18

---

Tested on: WSU-DLCL cell line
assay: Hematological cell line viability/apoptosis flow cytometry assay
Format: cell-based
setup_conditions: WSU-DLCL (DLBCL GCB); 120 h; read-out: % Viable Cells IC50
measured_endpoint: pIC50
Answer as the number alone; pIC50 is minus log10 of concentration in mol/L.

Lab note: O=C1CC[C@H](N2C(=O)c3cccc(NCc4ccc(CN5CC(N6CCOCC6)C5)cc4F)c3C2=O)C(=O)N1 [Compound 1] gave pIC50 of 6.85

---

Test system: RIVA cell line
assay: Hematological cell line viability/apoptosis flow cytometry assay
Assay type: cell-based
setup_conditions: RIVA (DLBCL ABC); 120 h; read-out: % Viable Cells IC50
measured_endpoint: pIC50
Answer as the number alone; pIC50 is minus log10 of concentration in mol/L.

Test item O=C1CC[C@H](N2C(=O)c3cccc(NCc4ccc(CN5CC(N6CCOCC6)C5)cc4F)c3C2=O)C(=O)N1 ; RIVA cell line; reported pIC50 was 6.95

---

Tested on: CII cell line
assay: Hematological cell line viability/apoptosis flow cytometry assay
Assay type: cell-based
setup_conditions: CII (CLL); 120 h; read-out: % Viable Cells IC50
pIC50: −log10 of the molar value.
measured_endpoint: pIC50

Lab note: O=C1CC[C@H](N2C(=O)c3cccc(NCc4ccc(CN5CC(N6CCOCC6)C5)cc4F)c3C2=O)C(=O)N1 gave pIC50 of < 5.00

---

Tested on: CII cell line
assay: Hematological cell line viability/apoptosis flow cytometry assay
Assay type: cell-based
setup_conditions: CII (CLL); 120 h
measured_endpoint: pEC50
Answer as the number alone; pEC50 is minus log10 of concentration in mol/L.

Lab note: O=C1CC[C@H](N2C(=O)c3cccc(NCc4ccc(CN5CC(N6CCOCC6)C5)cc4F)c3C2=O)C(=O)N1 [Compound 1] gave pEC50 of 6.84

---

Tested on: Mec2 cell line
assay: Hematological cell line viability/apoptosis flow cytometry assay
Assay type: cell-based
setup_conditions: Mec2 (CLL); 120 h; read-out: % Viable Cells IC50
measured_endpoint: pIC50
Answer as the number alone; pIC50 is minus log10 of concentration in mol/L.

Lab note: O=C1CC[C@H](N2C(=O)c3cccc(NCc4ccc(CN5CC(N6CCOCC6)C5)cc4F)c3C2=O)C(=O)N1 gave pIC50 of 7.12

---

Test system: CI cell line
assay: Hematological cell line viability/apoptosis flow cytometry assay
Assay type: cell-based
setup_conditions: CI (CLL); 120 h
measured_endpoint: pEC50
Answer as the number alone; pEC50 is minus log10 of concentration in mol/L.

Lab note: O=C1CC[C@H](N2C(=O)c3cccc(NCc4ccc(CN5CC(N6CCOCC6)C5)cc4F)c3C2=O)C(=O)N1 gave pEC50 of 7.64
